Assay: in vitro
Assay type: in vitro ADME
Settings: mouse, serum
Bridge positions count the residues as written; N and C are the ends. Square brackets hold non-standard residues; d marks the D form. Ends that are not written are not given here. I, II: the chains in the order shown. Ac6c = NC1(C(=O)O)CCCCC1; Dab = NCC[C@H](N)C(=O)O
Parameter: metabolised at 0.5 h

Substance	Parameter	Measured result
I: [Ac6c]RPDKPRPYLPRPRPPRPVR[Dab] / II: [Ac6c]RPDKPRPYLPRPRPPRPVR (amide I:21-II:C (inferred)) [Peptide A3-APO, reference compound]	metabolised at 0.5 h	~35%

----------
Assay: in vitro
Assay type: in vitro ADME, mouse
Details: 25% pooled mouse serum, 37° C.
Bridge positions count the residues as written; N and C are the ends. Square brackets hold non-standard residues; d marks the D form. Ends that are not written are not given here. I, II: the chains in the order shown. Ac6c = NC1(C(=O)O)CCCCC1; Dab = NCC[C@H](N)C(=O)O

Substance	half-life at 0.128 mg/mL
I: [Ac6c]RPDKPRPYLPRPRPPRPVR[Dab] / II: [Ac6c]RPDKPRPYLPRPRPPRPVR (amide I:21-II:C (inferred)) [Peptide A3-APO, reference compound]	~230 min
